- Target Entity: T1, human CD123 (full-length, on cells) (human, UniProt P26951 19-378)
- T1 construct: also called CD123-FL; interleukin-3 receptor alpha chain
- T1 sequence (P26951 19-378): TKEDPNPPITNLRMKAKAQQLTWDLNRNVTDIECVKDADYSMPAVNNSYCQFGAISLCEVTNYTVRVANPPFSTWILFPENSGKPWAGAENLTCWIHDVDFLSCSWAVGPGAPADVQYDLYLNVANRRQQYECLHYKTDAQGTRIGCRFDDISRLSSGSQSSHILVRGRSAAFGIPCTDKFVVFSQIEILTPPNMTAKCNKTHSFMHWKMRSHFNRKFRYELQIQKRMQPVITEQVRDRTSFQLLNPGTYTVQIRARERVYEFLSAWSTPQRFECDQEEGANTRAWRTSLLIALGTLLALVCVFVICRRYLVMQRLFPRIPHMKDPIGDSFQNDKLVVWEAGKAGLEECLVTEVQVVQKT
- Method Description: flow cytometry, HEK 293 cells transfected with full-length CD123 (CD123-FL); Median RL-1H
Overview of recorded EC50 (read off the curve) for various binders

Binder | Observed
hz1F5v2-IgG1 (Fc fusion) EVQLVESGGGEVQPGGSLRLSCTASGRAINMYAMGWFRQAPGKEREFVAAINWNGAYTQYAESVKGRFTISRDNAKNTLYLQMSSLRAEDTAVYYCSADADYNTYVSPNKRVSYWGQGTLVTVDKTHTCPPCPAPGGPSVFLFPPKPKDTLMISRTPEVTCVVVDVSHEDPEVKFNWYVDGVEVHNAKTKPREEQYNSTYRVVSVLTVLHQDWLNGKEYKCKVSNKALPAPIEKTISKAKGQPREPQVYTLPPSRDELTKNQVSLTCLVKGFYPSDIAVEWESNGQPENNYKTTPPVLDSDGSFFLYSKLTVDKSRWQQGNVFSCSVMHEALHNHYTQKSLSLSPGK | ~1 nM

Notebook: F3-IgG1 (Fc fusion, also called sdAb F3) EVQLVQSGGGLVQAGGSLRLSCRASGRAINSYNMGWFRQAPGKEREFVSAINWNGARTYYQDALKGRFAISRDNARNTMYLQMNNLKPEDTAVYYCAAAGRWSAAVPSGEDQYNFWGQGTQVTVDKTHTCPPCPAPGGPSVFLFPPKPKDTLMISRTPEVTCVVVDVSHEDPEVKFNWYVDGVEVHNAKTKPREEQYNSTYRVVSVLTVLHQDWLNGKEYKCKVSNKALPAPIEKTISKAKGQPREPQVYTLPPSRDELTKNQVSLTCLVKGFYPSDIAVEWESNGQPENNYKTTPPVLDSDGSFFLYSKLTVDKSRWQQGNVFSCSVMHEALHNHYTQKSLSLSPGK , EC50 (read off the curve) read as ~0.6 nM
